Measured ELISA signal values are reported for all entries that follow.
Target: sEGFR-MMB (Homo sapiens, UniProt P00533)
Construct: made in house; host or cells: Human Embryonic Kidney cells (293E)
Assay: Phage ELISA screening of panning hits
Type: binding
Conditions: phage clone culture supernatant; background typically <200 units
Please state the value followed by its unit.

In [3]: df
Out[3]:
                                  substance   meas_value
0  30 (AYCSFVAGDLVCQV; Peptide family identified from the S18 library) [compound 30]  19792 units
1  25 (RDCIIFDKTVYCVI; Peptide family identified from the S18 library) [compound 25]  17060 units

Here's the next entry for you.
Entry under test: 20 (TVFTLPELVCVVAGT; S15 library, which displays a random linear 15-mer) [compound 20] . Its ELISA signal was 1515 units
